Reference source for all entries: PubChem BioAssay AID651903

# assay-method-text: inhibitors of intracellular Trypanosoma cruzi, primary screen, cell-based, plate reader, single point, set 2 (AID 651903);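 further: parasites and compound incubated about four days before reading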
# condition-parameters: intracellular Trypanosoma cruzi in host cells, at 5.01 µM
In all, about 22,000 compounds went through this assay and about 1,100 (5%) were called active. No stated cut-off is given here; in the data, active means activity score above about 55%; inconclusive means no clear call, values can overlap the other calls; inactive means below that. The entries come from a sample that favours actives as a whole.
Outcome codes: true = active, false = inactive

{"columns": ["smiles-data", "label-value"],
 "data": [
  ["C[C@H](CO)N1C[C@H](C)[C@@H](CN(C)C)Oc2ccc(N(C)C)cc2C1=O", "false"],
  ["Cc1ccc(S(=O)(=O)N(C)C[C@H]2Oc3c(NC(=O)C4CC4)cccc3C(=O)N([C@@H](C)CO)C[C@@H]2C)cc1", "false"],
  ["C[C@H]1CN([C@@H](C)CO)C(=O)Cc2cc(NS(=O)(=O)c3cccs3)ccc2O[C@@H]1CN(C)Cc1ccc(Oc2ccccc2)cc1", "false"],
  ["C[C@H](CO)N1C[C@H](C)[C@H](CN(C)Cc2ccc(-c3ccccc3)cc2)Oc2ccc(NC(=O)Nc3ccc(F)cc3)cc2CC1=O", "true"],
  ["Cc1ccc(S(=O)(=O)N(C)C[C@H]2Oc3ccc(NC(=O)Nc4cccc5ccccc45)cc3CC(=O)N([C@H](C)CO)C[C@H]2C)cc1", "true"],
  ["C[C@H]1CN([C@@H](C)CO)C(=O)Cc2cc(NC(=O)Nc3ccc(F)cc3)ccc2O[C@H]1CN(C)S(=O)(=O)c1ccccc1", "false"],
  ["C[C@H](CO)N1C[C@H](C)[C@H](CN(C)Cc2ccc(C(F)(F)F)cc2)Oc2ccc(N(C)C)cc2CC1=O", "false"],
  ["C[C@H]1CN([C@@H](C)CO)C(=O)Cc2cc(NS(=O)(=O)c3ccc(Cl)cc3)ccc2O[C@@H]1CN(C)S(=O)(=O)c1ccccc1", "false"],
  ["C[C@H](CO)N1C[C@H](C)[C@H](CN(C)C(=O)NC2CCCC2)Oc2ncc(-c3ccc(F)cc3)cc2C1=O", "false"],
  ["C[C@@H]1CN([C@H](C)CO)C(=O)Cc2cc(NC(=O)Nc3ccc(C(F)(F)F)cc3)ccc2O[C@@H]1CN(C)S(=O)(=O)c1ccccc1", "true"],
  ["Cc1noc(C)c1NC(=O)Nc1ccc2c(c1)C(=O)N([C@H](C)CO)C[C@H](C)[C@@H](CN(C)C(=O)Nc1ccccc1)O2", "false"],
  ["COc1ccc(NC(=O)Nc2ccc3c(c2)C(=O)N([C@@H](C)CO)C[C@H](C)[C@@H](CN(C)S(=O)(=O)c2ccc(Cl)cc2)O3)cc1", "false"],
  ["C[C@@H]1CN([C@@H](C)CO)C(=O)CCCn2cc(nn2)CO[C@@H]1CN(C)C(=O)c1ccncc1", "false"],
  ["C[C@@H]1CN([C@H](C)CO)C(=O)Cc2cc(N(C)C)ccc2O[C@@H]1CN(C)Cc1ccccc1", "false"],
  ["C[C@H](CO)N1C[C@H](C)[C@H](CN(C)C)Oc2ncc(/C=C/c3ccccc3)cc2C1=O", "true"],
  ["C[C@H](CO)N1C[C@H](C)[C@H](CN(C)Cc2ccncc2)Oc2ccc(NS(=O)(=O)c3ccc(F)cc3)cc2CC1=O", "false"],
  ["C[C@@H]1CN([C@@H](C)CO)C(=O)Cc2cc(NC(=O)Nc3cccc4ccccc34)ccc2O[C@@H]1CN(C)CC1CCCCC1", "true"],
  ["C[C@@H]1CN([C@H](C)CO)C(=O)Cc2cc(NC(=O)c3ccncc3)ccc2O[C@H]1CN(C)Cc1ccc(-c2ccccc2)cc1", "true"],
  ["C[C@H]1CN([C@@H](C)CO)C(=O)Cc2cc(NC(=O)Nc3cccc4ccccc34)ccc2O[C@@H]1CN(C)S(C)(=O)=O", "false"],
  ["C[C@H]1CN([C@@H](C)CO)C(=O)Cc2cc(NS(C)(=O)=O)ccc2O[C@@H]1CN(C)S(=O)(=O)c1ccc(Cl)cc1", "false"],
  ["C[C@@H]1CN([C@@H](C)CO)C(=O)Cc2cc(NC(=O)Nc3ccc4c(c3)OCO4)ccc2O[C@@H]1CN(C)CC1CCCCC1", "true"],
  ["C[C@H](CO)N1C[C@H](C)[C@H](CN(C)S(=O)(=O)c2cccs2)Oc2ccc(NS(=O)(=O)c3ccc(Cl)cc3)cc2CC1=O", "false"],
  ["COc1ccc(S(=O)(=O)N(C)C[C@H]2OCc3cnnn3CCCC(=O)N([C@H](C)CO)C[C@H]2C)cc1", "false"],
  ["C[C@@H]1CN([C@H](C)CO)C(=O)Cc2cc(NC(=O)Nc3ccccc3)ccc2O[C@@H]1CN(C)Cc1ccc(C(F)(F)F)cc1", "false"],
  ["C[C@H]1CN([C@@H](C)CO)C(=O)Cc2cc(NC(=O)Nc3cccc4ccccc34)ccc2O[C@H]1CN(C)CC1CC1", "false"],
  ["COc1ccc(NC(=O)Nc2ccc3c(c2)CC(=O)N([C@@H](C)CO)C[C@H](C)[C@@H](CN(C)CC2CCCCC2)O3)cc1", "false"],
  ["C[C@H](CO)N1C[C@H](C)[C@H](CN(C)C(=O)Nc2cccc3ccccc23)Oc2ncc(C#Cc3ccccc3)cc2C1=O", "true"],
  ["COc1ccc(CN(C)C[C@@H]2Oc3ccc(NC(=O)c4ccncc4)cc3CC(=O)N([C@H](C)CO)C[C@H]2C)cc1", "false"],
  ["Cc1ccc(S(=O)(=O)N(C)C[C@@H]2Oc3ccc(NS(=O)(=O)c4c(C)noc4C)cc3CC(=O)N([C@H](C)CO)C[C@H]2C)cc1", "false"]
]}
